- Test system: HT-29
- test: Cytotoxicity against human HT29 cells after 48 hrs by SRB assay
- Type: functional, cell-based
- reported.conditions: Homo sapiens, HT-29, 48 h; read-out: LC50 (the source's name)
experimental.readout: CC50 (nM)
Answers are plain numbers, in nM.

C/C=C1\NC(=O)[C@H](Cc2ccccc2)NC(=O)[C@@H](CCC2CCCCC2)NC(=O)[C@@H](CCC2CCCCC2)NC(=O)[C@H](NC(=O)[C@@H](CCC2CCCCC2)NC(=O)[C@H](CCCN)NC(=O)[C@H]2CCCN2C(=O)[C@H](NC(=O)[C@@H](NC(=O)[C@@H](NC(=O)[C@H](NC(=O)CCCC(C)C)C(C)C)[C@@H](C)O)C(C)C)C(C)C)[C@H](C)OC(=O)[C@H](C(C)C)NC1=O = 320

Dear colleague, could you please provide CC50 for the compounds listed below?
1. C/C=C1\NC(=O)[C@H](Cc2ccccc2)N(C)C(=O)[C@@H](C(C)C)NC(=O)[C@@H]([C@H](C)CC)NC(=O)[C@H](NC(=O)[C@H](NC(=O)[C@H](CCCN)NC(=O)[C@H]2CCCN2C(=O)[C@H](NC(=O)[C@@H](NC(=O)[C@@H](NC(=O)[C@H](NC(=O)CC[C@@H](C)CC)C(C)C)[C@@H](C)O)C(C)C)C(C)C)[C@H](C)CC)[C@H](C)OC(=O)[C@H](C(C)C)NC1=O
2. CC[C@@H](C)[C@@H](NC(=O)[C@H](CCCN)NC(=O)[C@H]1CCCN1C(=O)[C@H](NC(=O)[C@@H](NC(=O)[C@@H](NC(=O)[C@H](NC(=O)CCCC(C)C)C(C)C)[C@@H](C)O)C(C)C)C(C)C)C(=O)N[C@H]1C(=O)N[C@H]([C@H](C)CC)C(=O)N[C@H](C(C)C)C(=O)N[C@@H](Cc2ccccc2)C(=O)NCC(=O)N[C@@H](C(C)C)C(=O)O[C@H]1C

Reply:
1: 220; 2: 775

###

- System: LoVo
- test: Cytotoxicity against human doxorubicin resistant LoVo cells after 48 hrs by SRB assay
- Type: functional
Record form. Attribute: TGI. Fill in for each entry.
Give your result as the value with the unit written after it.

C/C=C1\NC(=O)[C@H](Cc2cccc(Cl)c2)NC(=O)[C@@H](C(C)C)NC(=O)[C@@H]([C@H](C)CC)NC(=O)[C@H](NC(=O)[C@H](NC(=O)[C@H](CCCN)NC(=O)[C@H]2CCCN2C(=O)[C@H](NC(=O)[C@@H](NC(=O)[C@@H](NC(=O)[C@H](NC(=O)CCCC(C)C)C(C)C)[C@@H](C)O)C(C)C)C(C)C)[C@H](C)CC)[C@H](C)OC(=O)[C@H](C(C)C)NC1=O = 35.7 nM
C/C=C1\NC(=O)[C@H](Cc2ccccc2)NC(=O)[C@@H](C(C)C)NC(=O)[C@@H]([C@H](C)CC)NC(=O)[C@H](NC(=O)[C@H](NC(=O)[C@H](CCCN)NC(=O)[C@H]2CCCCN2C(=O)[C@H](NC(=O)[C@@H](NC(=O)[C@@H](NC(=O)[C@H](NC(=O)CC[C@@H](C)CC)C(C)C)[C@@H](C)O)C(C)C)C(C)C)[C@H](C)CC)[C@H](C)OC(=O)[C@H](C(C)C)NC1=O = 1820 nM
C/C=C1\NC(=O)[C@H](Cc2ccccc2)NC(=O)[C@@H](C(C)C)NC(=O)[C@@H]([C@H](C)CC)NC(=O)[C@H](NC(=O)[C@H](NC(=O)[C@H](CCCN)NC(=O)[C@H]2CCCN2C(=O)[C@H](NC(=O)[C@@H](NC(=O)[C@@H](NC(=O)[C@H](NC(=O)CCCCCCC)C(C)C)[C@@H](C)O)C(C)C)C(C)C)[C@H](C)CC)[C@H](C)OC(=O)[C@H](C(C)C)NC1=O = 289 nM

Dear colleague, could you please provide TGI for the compounds listed below?
1. C/C=C1\NC(=O)[C@H](Cc2ccccc2)NC(=O)[C@@H](C(C)C)NC(=O)[C@@H]([C@H](C)CC)NC(=O)[C@H](NC(=O)[C@H](NC(=O)[C@H](CCCN)NC(=O)[C@H]2CCCN2C(=O)[C@H](NC(=O)[C@@H](NC(=O)[C@@H]2CCCN2C(=O)[C@H](NC(=O)CCCC(C)C)C(C)C)C(C)C)C(C)C)[C@H](C)CC)[C@H](C)OC(=O)[C@H](C(C)C)NC1=O
2. C/C=C1\NC(=O)[C@H](Cc2ccccc2)NC(=O)[C@@H](C(C)C)NC(=O)[C@@H]([C@H](C)CC)NC(=O)[C@H](NC(=O)[C@H](NC(=O)[C@H](CCCN)NC(=O)[C@H]2CCCN2C(=O)[C@H](NC(=O)[C@H](CCC2CCCCC2)NC(=O)[C@@H](NC(=O)[C@H](NC(=O)CCCC(C)C)C(C)C)[C@@H](C)O)C(C)C)[C@H](C)CC)[C@H](C)OC(=O)[C@H](C(C)C)NC1=O

Reply:
2330 nM
153 nM

Dear colleague, could you please provide TGI for the compounds listed below?
1. C/C=C1\NC(=O)[C@H](Cc2ccccc2)NC(=O)[C@@H](C(C)C)NC(=O)[C@@H]([C@H](C)CC)NC(=O)[C@H](NC(=O)[C@H](NC(=O)[C@H](CCCN)NC(=O)[C@H]2CCCN2C(=O)[C@H](NC(=O)[C@@H](NC(=O)[C@H](CCCN)NC(=O)[C@H](NC(=O)CCCC(C)C)C(C)C)C(C)C)C(C)C)[C@H](C)CC)[C@H](C)OC(=O)[C@H](C(C)C)NC1=O
2. C/C=C1\NC(=O)[C@H](Cc2ccc(Cl)c(Cl)c2)NC(=O)[C@@H](C(C)C)NC(=O)[C@@H]([C@H](C)CC)NC(=O)[C@H](NC(=O)[C@H](NC(=O)[C@H](CCCN)NC(=O)[C@H]2CCCN2C(=O)[C@H](NC(=O)[C@@H](NC(=O)[C@@H](NC(=O)[C@H](NC(=O)CC[C@@H](C)CC)C(C)C)[C@@H](C)O)C(C)C)C(C)C)[C@H](C)CC)[C@H](C)OC(=O)[C@H](C(C)C)NC1=O
3. C=C1NC(=O)[C@H](Cc2ccccc2)NC(=O)[C@@H](C(C)C)NC(=O)[C@@H]([C@H](C)CC)NC(=O)[C@H](NC(=O)[C@H](NC(=O)[C@H](CCCN)NC(=O)[C@H]2CCCN2C(=O)[C@H](NC(=O)[C@@H](NC(=O)[C@@H](NC(=O)[C@H](NC(=O)CCCC(C)C)C(C)C)[C@@H](C)O)C(C)C)C(C)C)[C@H](C)CC)[C@H](C)OC(=O)[C@H](C(C)C)NC1=O
4. C/C=C1\NC(=O)[C@@H]2C[C@@H]3CCCC[C@@H]3N2C(=O)[C@@H](C(C)C)NC(=O)[C@@H]([C@H](C)CC)NC(=O)[C@H](NC(=O)[C@H](NC(=O)[C@H](CCCN)NC(=O)[C@H]2CCCN2C(=O)[C@H](NC(=O)[C@@H](NC(=O)[C@@H](NC(=O)[C@H](NC(=O)CC[C@@H](C)CC)C(C)C)[C@@H](C)O)C(C)C)C(C)C)[C@H](C)CC)[C@H](C)OC(=O)[C@H](C(C)C)NC1=O
5. C/C=C1\NC(=O)[C@H](Cc2ccccc2)NC(=O)[C@@H](C(C)C)NC(=O)[C@@H]([C@H](C)CC)NC(=O)[C@H](NC(=O)[C@H](NC(=O)[C@H](CCCN)NC(=O)[C@H]2CCCN2C(=O)[C@H](NC(=O)[C@@H](NC(=O)[C@@H](NC(=O)[C@@H](NC(=O)CCCC(C)C)C(C)C)[C@@H](C)O)C(C)C)C(C)C)[C@H](C)CC)[C@H](C)OC(=O)[C@H](C(C)C)NC1=O

Reply:
2700 nM
248 nM
3720 nM
433 nM
2250 nM

###

- Test system: HT-29
- test: Cytotoxicity against human HT29 cells after 48 hrs by SRB assay
- Type: functional, cell-based
- reported.conditions: Homo sapiens, HT-29, 48 h
Record form. Attribute: GI50. Fill in for each entry.

Dear colleague, could you please provide GI50 for the compounds listed below?
1. C/C=C1\NC(=O)[C@H](Cc2ccc([N+](=O)[O-])cc2)NC(=O)[C@@H](C(C)C)NC(=O)[C@@H]([C@H](C)CC)NC(=O)[C@H](NC(=O)[C@H](NC(=O)[C@H](CCCN)NC(=O)[C@H]2CCCN2C(=O)[C@H](NC(=O)[C@@H](NC(=O)[C@@H](NC(=O)[C@H](NC(=O)CC[C@@H](C)CC)C(C)C)[C@@H](C)O)C(C)C)C(C)C)[C@H](C)CC)[C@H](C)OC(=O)[C@H](C(C)C)NC1=O
2. C/C=C1\NC(=O)[C@H](Cc2ccccc2)NC(=O)[C@@H](C(C)C)NC(=O)[C@@H]([C@H](C)CC)NC(=O)[C@H](NC(=O)[C@H](NC(=O)[C@H](CCCNC(=O)/C=C/CCC)NC(=O)[C@H]2CCCN2C(=O)[C@H](NC(=O)[C@@H](NC(=O)[C@@H](NC(=O)[C@H](NC(=O)CCCC(C)C)C(C)C)[C@@H](C)O)C(C)C)C(C)C)[C@H](C)CC)[C@H](C)OC(=O)[C@H](C(C)C)NC1=O
3. C/C=C1\NC(=O)[C@H](Cc2c(F)c(F)c(F)c(F)c2F)NC(=O)[C@@H](C(C)C)NC(=O)[C@@H]([C@H](C)CC)NC(=O)[C@H](NC(=O)[C@H](NC(=O)[C@H](CCCN)NC(=O)[C@H]2CCCN2C(=O)[C@H](NC(=O)[C@@H](NC(=O)[C@@H](NC(=O)[C@H](NC(=O)CC[C@@H](C)CC)C(C)C)[C@@H](C)O)C(C)C)C(C)C)[C@H](C)CC)[C@H](C)OC(=O)[C@H](C(C)C)NC1=O
4. C/C=C1\NC(=O)[C@H](Cc2ccccc2)NC(=O)[C@@H](C(C)C)NC(=O)[C@@H]([C@H](C)CC)NC(=O)[C@H](NC(=O)[C@H](NC(=O)[C@H](CCCNC(=O)CCC2CCCCC2)NC(=O)[C@H]2CCCN2C(=O)[C@H](NC(=O)[C@@H](NC(=O)[C@@H](NC(=O)[C@H](NC(=O)CCCC(C)C)C(C)C)[C@@H](C)O)C(C)C)C(C)C)[C@H](C)CC)[C@H](C)OC(=O)[C@H](C(C)C)NC1=O

Reply:
419 nM
126 nM
1090 nM
66.6 nM

Ask: Give a short answer stating reported GI50 for C/C=C1\NC(=O)[C@H](Cc2ccc3ccccc3c2)NC(=O)[C@@H](C(C)C)NC(=O)[C@@H]([C@H](C)CC)NC(=O)[C@H](NC(=O)[C@H](NC(=O)[C@H](CCCN)NC(=O)[C@H]2CCCN2C(=O)[C@H](NC(=O)[C@@H](NC(=O)[C@@H](NC(=O)[C@H](NC(=O)CCCC(C)C)C(C)C)[C@@H](C)O)C(C)C)C(C)C)[C@H](C)CC)[C@H](C)OC(=O)[C@H](C(C)C)NC1=O .
Reply: 37.9 nM
